FYI, the data here is from patent US4323567A.

Entries and their measured MIC follow.
- Test system: E. coli JC-2
- assay: Minimal inhibitory concentration, nutrient agar plate
- Format: cell-based
- particulars: Escherichia coli, JC2; as sodium salt, inoculum size 10^8, pH 7.0; read-out: Minimal inhibitory concentration
Output spec: scalar in µg/mL, unitless text.

These solved cases illustrate the format of a correct answer.
CO[C@@]1(NC(=O)C(C(=O)O)c2ccc(O)cc2)C(=O)N2C(C(=O)O)=C(CSc3nnnn3C)CO[C@@H]21 (stereo partly shown) = 0.02
Cn1nnnc1SCC1=C(C(=O)O)N2C(=O)[C@@H](NC(=O)C(C(=O)O)c3cccs3)[C@H]2OC1 (stereo partly shown) = 0.1
CO[C@@]1(NC(=O)C(C(=O)O)c2ccc(OC(N)=O)cc2)C(=O)N2C(C(=O)O)=C(CSc3nnnn3C)CO[C@@H]21 (stereo partly shown) = 0.39
Cn1nnnc1SCC1=C(C(=O)O)N2C(=O)[C@@H](NC(=O)C(O)c3ccccc3)[C@H]2OC1 (stereo partly shown) [(4), reference compound] = 0.2
Cn1nnnc1SCC1=C(C(=O)O)N2C(=O)[C@@H](NC(=O)C(C(=O)O)c3ccccc3)[C@H]2OC1 (stereo partly shown) = 0.2

-- ask // fetch MIC given entry Cn1nnnc1SCC1=C(C(=O)O)N2C(=O)[C@@H](NC(=O)C(C(=O)O)c3ccc(O)cc3)[C@H]2OC1 (stereo partly shown)
-- reply 0.39
